In this section, each of the molecules is paired with its reported CC50 at 72 h.
- METHOD: Cytotoxicity (MTT) on PMA-differentiated THP-1 macrophages
- Assay type: cell-based
- STUDY CONDITIONS: human
TEST READOUT: CC50 at 72 h

STRUCTURE NOTATION	TEST READOUT	RESULT
CO[C@@H]1C[C@@H](C[C@H]2CC[C@H](C)[C@H]([C@@H](C)C(=O)O)O2)O[C@]2(O[C@](C)([C@H]3CC[C@@](C)([C@@H]4O[C@@H]([C@H]5O[C@@](O)(CO)[C@H](C)C[C@@H]5C)C[C@@H]4C)O3)C[C@H]2C)[C@@H]1C	CC50 at 72 h	> 60 µM
CC[C@@]1([C@@H]2O[C@@H]([C@H]3O[C@@](O)(CO)[C@H](C)C[C@@H]3C)C[C@@H]2C)CC[C@H]([C@]2(C)CC[C@]3(C[C@H](O)[C@@H](C)[C@@H]([C@@H](C)[C@@H](OC)[C@H](C)C(=O)O)O3)O2)O1	CC50 at 72 h	> 60 µM
